# assay-target: Cannabinoid receptor 1 (Homo sapiens)
# assay-procedure: Agonist activity at human CB1 receptor expressed in CHO cells assessed as inhibition of forskolin-induced cAMP levels after 20 mins
property: pIC50
Conceptually, pIC50 converts a concentration in mol/L into minus its log10.

Query block: For Cannabinoid receptor 1 (Homo sapiens), give the measured pIC50 of the entry `O=C(O)c1cccc(NC(=O)c2cc3c(n(CC4CCCCC4)c2=O)CCCCCC3)c1`
Result block: 6.21

Query block: Print Cannabinoid receptor 1 (Homo sapiens) pIC50 for `O=C(O)c1ccccc1NC(=O)c1cc2c(n(CC3CCCCC3)c1=O)CCCCCC2` .
Result block: 6.18

Query block: Recall the reported pIC50 of `O=C(O)c1ccc(NC(=O)c2cc3c(n(CC4CCCCC4)c2=O)CCCCCC3)cc1` on Cannabinoid receptor 1 (Homo sapiens) and write it down.
Result block: 6.54

Query block: Give the observed pIC50 of `O=C(O)Cc1cccc(NC(=O)c2cc3c(n(CC4CCCCC4)c2=O)CCCCCC3)c1` for Cannabinoid receptor 1 (Homo sapiens).
Result block: 6.00

Query block: Provide pIC50, tested on Cannabinoid receptor 1 (Homo sapiens), for `O=C(O)Cc1cnc(NC(=O)c2cc3c(n(CC4CCCCC4)c2=O)CCCCCC3)s1` .
Result block: 7.64

* * *

# assay-target: Cannabinoid receptor 2 (Homo sapiens)
# Sequence (P34972 whole entry): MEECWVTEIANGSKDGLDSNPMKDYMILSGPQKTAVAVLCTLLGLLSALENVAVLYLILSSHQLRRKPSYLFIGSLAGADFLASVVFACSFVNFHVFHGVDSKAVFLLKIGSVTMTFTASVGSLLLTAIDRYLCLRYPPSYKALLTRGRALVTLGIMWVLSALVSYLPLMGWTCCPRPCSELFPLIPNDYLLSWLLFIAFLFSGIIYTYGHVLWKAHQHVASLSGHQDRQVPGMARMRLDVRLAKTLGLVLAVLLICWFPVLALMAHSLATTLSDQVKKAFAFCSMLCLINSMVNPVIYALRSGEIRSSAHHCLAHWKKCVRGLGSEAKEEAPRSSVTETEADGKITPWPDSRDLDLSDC
pKi: −log10 of the molar value.
Output condition met for pKi not less than 7; output condition not met otherwise.

Query block: Threshold query (pKi >= 7) on `O=C(O)c1cnc(NC(=O)c2cc3c(n(CC4CCCCC4)c2=O)CCCCCC3)s1`
Result block: condition not met

Query block: State whether the measured pKi reaches 7, counting equality as reaching it, for `O=C(N[C@H](C(=O)O)c1ccccc1)c1cc2c(n(CC3CCCCC3)c1=O)CCCCCC2`
Result block: condition met

Query block: Record `O=C(O)Cc1ccccc1NC(=O)c1cc2c(n(CC3CCCCC3)c1=O)CCCCCC2` ; criterion: pKi no lower than 7. Met?
Result block: condition met

Query block: Check if pKi >= 7 (inclusive). Item: `O=C(O)c1ccc(CNC(=O)c2cc3c(n(CC4CCCCC4)c2=O)CCCCCC3)cc1`
Result block: condition not met

* * *

Give measured Ki for each item. Keep answers brief.
Respond numerically; units are nM and should not be typed.

Query block: GET Ki | system: Cannabinoid receptor 1 (Homo sapiens, UniProt P21554) | item: `CC(C)[C@H](NC(=O)c1cc2c(n(CC3CCCCC3)c1=O)CCCCCC2)C(=O)O`
Result block: 1880

Query block: // fetch Ki for `O=C(O)c1cccc(NC(=O)c2cc3c(n(CC4CCCCC4)c2=O)CCCCCC3)c1` ; system: Cannabinoid receptor 1 (Homo sapiens, UniProt P21554)
Sequence (P21554 whole entry): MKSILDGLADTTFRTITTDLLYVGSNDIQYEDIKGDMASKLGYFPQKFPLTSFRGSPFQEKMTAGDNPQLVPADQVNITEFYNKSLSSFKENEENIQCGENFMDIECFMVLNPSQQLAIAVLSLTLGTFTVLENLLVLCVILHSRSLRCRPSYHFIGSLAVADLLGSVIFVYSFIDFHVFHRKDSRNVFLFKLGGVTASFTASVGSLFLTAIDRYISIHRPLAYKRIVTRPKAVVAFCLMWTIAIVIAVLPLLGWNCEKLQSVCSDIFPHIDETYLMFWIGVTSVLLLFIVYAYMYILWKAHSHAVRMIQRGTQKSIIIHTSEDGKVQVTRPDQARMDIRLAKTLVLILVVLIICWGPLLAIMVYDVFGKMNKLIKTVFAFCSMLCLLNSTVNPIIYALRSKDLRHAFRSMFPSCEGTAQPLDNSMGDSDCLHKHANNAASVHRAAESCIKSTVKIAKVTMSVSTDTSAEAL
Result block: 1560

Query block: Would you please give the reported Ki of `O=C(O)c1ccc(NC(=O)c2cc3c(n(CC4CCCCC4)c2=O)CCCCCC3)cc1` with Cannabinoid receptor 1 (Homo sapiens, UniProt P21554)?
Result block: 370

Query block: Jot down Ki (Cannabinoid receptor 1 (Homo sapiens, UniProt P21554)) of `O=C(O)Cc1ccc(NC(=O)c2cc3c(n(CC4CCCCC4)c2=O)CCCCCC3)cc1` .
Result block: 3990

Query block: Identify measured Ki obtained with Cannabinoid receptor 1 (Homo sapiens, UniProt P21554) for `O=C(O)c1ccccc1NC(=O)c1cc2c(n(CC3CCCCC3)c1=O)CCCCCC2` .
Result block: 2530

Query block: Answer with Ki of `O=C(O)Cc1cccc(NC(=O)c2cc3c(n(CC4CCCCC4)c2=O)CCCCCC3)c1` measured for Cannabinoid receptor 1 (Homo sapiens, UniProt P21554).
Result block: 2880

Query block: Report its Ki with Cannabinoid receptor 1 (Homo sapiens, UniProt P21554) as the test system: `O=C(O)Cc1cnc(NC(=O)c2cc3c(n(CC4CCCCC4)c2=O)CCCCCC3)s1`
Result block: 235

Query block: Name the value of Ki reported for `O=C(N[C@@H](C(=O)O)c1ccccc1)c1cc2c(n(CC3CCCCC3)c1=O)CCCCCC2` when tested on Cannabinoid receptor 1 (Homo sapiens, UniProt P21554).
Result block: 69

Query block: Provide Ki, tested on Cannabinoid receptor 1 (Homo sapiens, UniProt P21554), for `O=C(N[C@H](C(=O)O)C1CCCCC1)c1cc2c(n(CC3CCCCC3)c1=O)CCCCCC2` .
Result block: 3060

Query block: Specify Ki for `CC(C)(NC(=O)c1cc2c(n(CC3CCCCC3)c1=O)CCCCCC2)C(=O)O` , system Cannabinoid receptor 1 (Homo sapiens, UniProt P21554).
Result block: 1350

Query block: Enter recorded Ki with Cannabinoid receptor 1 (Homo sapiens, UniProt P21554) for `O=C(N[C@@H](Cc1ccccc1)C(=O)O)c1cc2c(n(CC3CCCCC3)c1=O)CCCCCC2` here.
Result block: 738

Query block: Report the value of Ki obtained on Cannabinoid receptor 1 (Homo sapiens, UniProt P21554) for `O=C(O)Cc1ccccc1NC(=O)c1cc2c(n(CC3CCCCC3)c1=O)CCCCCC2` .
Result block: 548

Cited source: ChEMBL document CHEMBL2021918
